experimental-target: UniProt P00742
Sequence (P00742 41-179 limits assumed): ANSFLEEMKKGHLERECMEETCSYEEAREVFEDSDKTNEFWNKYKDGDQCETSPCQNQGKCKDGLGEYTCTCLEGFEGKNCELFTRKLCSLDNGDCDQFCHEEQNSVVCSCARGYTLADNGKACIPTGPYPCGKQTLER
Sequence (P00742 235-488 limits assumed): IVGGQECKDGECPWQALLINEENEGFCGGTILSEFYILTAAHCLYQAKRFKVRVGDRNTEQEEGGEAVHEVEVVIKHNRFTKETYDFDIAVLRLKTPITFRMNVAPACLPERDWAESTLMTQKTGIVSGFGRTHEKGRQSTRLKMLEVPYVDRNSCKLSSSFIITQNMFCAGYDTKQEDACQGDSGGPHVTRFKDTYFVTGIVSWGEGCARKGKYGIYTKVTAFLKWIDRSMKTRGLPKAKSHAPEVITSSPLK
Strictly below 0.01 µM in IC50: label 1. Otherwise: label 0.

>  <molecule>
N=C(N)c1cccc(OC(C(=O)Nc2ccc(C(=O)N3CCCC3)cc2Br)c2ccccc2)c1 (stereo not drawn)

>  <experimental-target>
UniProt P00742

>  <assigned-class>
label 1

$$$$
>  <molecule>
N=C(N)c1cccc(OCC(=O)Nc2ccc(C(=O)N3CCCCCC3)cc2)c1

>  <experimental-target>
UniProt P00742

>  <assigned-class>
label 0

$$$$
>  <molecule>
N=C(N)c1cccc(OC(C(=O)Nc2ccc(N3CCOCC3)c(F)c2)c2ccccc2)c1 (stereo not drawn)

>  <experimental-target>
UniProt P00742

>  <assigned-class>
label 1

$$$$
>  <molecule>
CC(C)(C)OC(=O)C1CCCN1C(=O)c1ccc(NC(=O)COc2cccc(C(=N)N)c2)cc1 (stereo not drawn)

>  <experimental-target>
UniProt P00742

>  <assigned-class>
label 0

$$$$
>  <molecule>
N=C(N)c1cccc(OC(C(=O)Nc2ccc(-n3cnc(Cl)c3Cl)cc2)c2ccccc2)c1 (stereo not drawn)

>  <experimental-target>
UniProt P00742

>  <assigned-class>
label 0

$$$$
>  <molecule>
CN1CCN(C(=O)c2ccc(NC(=O)COc3cccc(C(=N)N)c3)cc2)CC1

>  <experimental-target>
UniProt P00742

>  <assigned-class>
label 0

$$$$
>  <molecule>
N=C(N)c1cccc(OCC(=O)Nc2ccc(C(=O)N3CCCC3)cc2)c1

>  <experimental-target>
UniProt P00742

>  <assigned-class>
label 0

$$$$

// next entry
Does N=C(N)c1cccc(OCC(=O)Nc2ccc(C(=O)N3CCC3)cc2)c1 have IC50 strictly under 0.01 µM?
label 0
